# System: Human immunodeficiency virus 1
# experiment: Antiviral activity against HIV-1 Bal-R5 infected in human CEMx174 5.25M7 cells assessed as reduction in p24 antigen level measured after 4 days by ELISA
# Type: functional, organism-based
# assay_context: Human immunodeficiency virus 1, Bal-R5, CEMx174 5.25M7, 96 h
measure_name: pEC50
Quick note: pEC50 values are minus log10 of concentrations in mol/L.

IN: Would you kindly share the measured pEC50 for CC(=O)N1CCC(C(=O)N(CCCN2CCC(Cc3ccc(C(N)=O)cc3)CC2)c2ccc(C)c(Cl)c2)CC1 ?
OUT: 8.04

====

# System: Human immunodeficiency virus 1
# experiment: Antiviral activity against HIV-1 clinical isolate X4-92UG024 infected in human CEMx174 5.25M7 cells assessed as reduction in p24 antigen level measured after 4 days by ELISA
# Assay type: functional, organism-based
# assay_context: Human immunodeficiency virus 1, clinical isolate X4-92UG024, CEMx174 5.25M7, 96 h
measure_name: EC50 (nM)
Provide the reading as a plain figure in nM.

IN: Would you kindly share the measured EC50 for Ac-IEELIRAAQEQQRKNEEALREL-NH2 ?
OUT: 76.5

====

# System: Human immunodeficiency virus 1
# experiment: Antiviral activity against HIV-1 clinical isolate R5-J32228M4 infected in human CEMx174 5.25M7 cells assessed as reduction in p24 antigen level measured after 4 days by ELISA
# Assay type: functional, organism-based
# assay_context: Human immunodeficiency virus 1, clinical isolate R5-J32228M4, CEMx174 5.25M7, 96 h
pEC50: −log10 of the molar value.
measure_name: pEC50

IN: Would you kindly share the measured pEC50 for Ac-IEELIRAAQEQQRKNEEALREL-NH2 ?
OUT: < 6.60

====

# tested_system: C-C chemokine receptor type 5 (Homo sapiens)
# Sequence (P51681 whole entry): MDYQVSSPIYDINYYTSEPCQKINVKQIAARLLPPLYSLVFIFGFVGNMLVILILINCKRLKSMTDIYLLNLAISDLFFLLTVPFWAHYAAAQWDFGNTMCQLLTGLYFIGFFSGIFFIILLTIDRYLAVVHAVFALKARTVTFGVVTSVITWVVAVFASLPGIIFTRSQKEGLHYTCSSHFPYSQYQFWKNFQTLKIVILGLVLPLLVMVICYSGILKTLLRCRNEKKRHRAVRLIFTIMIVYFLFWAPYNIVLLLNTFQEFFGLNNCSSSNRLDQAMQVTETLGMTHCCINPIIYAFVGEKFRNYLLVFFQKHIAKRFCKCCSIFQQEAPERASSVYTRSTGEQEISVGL
# experiment: Antagonist activity at CCR5 (unknown origin) expressed in HEK293 cells co-expressing Galpha16 assessed as intracellular calcium change incubated for 60 mins by Fluo-4 AM calcium flux based FLIPR assay
# Type: functional, cell-based
measure_name: IC50

IN: Would you kindly share the measured IC50 for Ac-IEELIRAAQEQQRKNEEALREL-NH2 ?
OUT: > 10 µM
